# TARGET UNDER TEST: T1, cynomolgus monkey IL-4Rα (cynomolgus monkey, UniProt P24394 26-231 (human entry), limits assumed)
# T1 construct: also called Cyno IL-4Rα; cyIL-4Rα
# T1 chain: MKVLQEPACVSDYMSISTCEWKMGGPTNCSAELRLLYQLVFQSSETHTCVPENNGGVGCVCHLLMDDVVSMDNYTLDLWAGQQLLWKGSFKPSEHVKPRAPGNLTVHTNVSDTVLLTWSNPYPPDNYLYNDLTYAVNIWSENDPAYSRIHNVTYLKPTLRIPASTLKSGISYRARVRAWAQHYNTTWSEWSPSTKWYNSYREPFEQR
# ASSAY SUMMARY: SPR, Carterra LSA;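 note: antibodies captured on an anti-human Fc sensor chip, antigen injected at several concentrations, association and dissociation rates fitted with a 1:1 Langmuir model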
Could you please report measured KD Relative to Dupilumab for the items listed next?
Numbers only.

Here are 2 binders together with their reported answers.
- BINDER: "Construct 31 (mAb443) (antibody, IgG4, V domains shown, VH/VL only) VH: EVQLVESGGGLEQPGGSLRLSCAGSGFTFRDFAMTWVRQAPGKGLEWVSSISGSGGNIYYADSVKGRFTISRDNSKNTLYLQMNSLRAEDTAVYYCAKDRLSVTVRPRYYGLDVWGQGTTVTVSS VL: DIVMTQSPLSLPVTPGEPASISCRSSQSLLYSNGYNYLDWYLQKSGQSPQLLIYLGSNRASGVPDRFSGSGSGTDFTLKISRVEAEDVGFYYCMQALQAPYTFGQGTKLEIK"
  QUANTITY KIND: "KD Relative to Dupilumab"
  ENDPOINT VALUE: 0.67
- BINDER: "Construct 17 (mAb425) (antibody, IgG4, V domains shown, VH/VL only) VH: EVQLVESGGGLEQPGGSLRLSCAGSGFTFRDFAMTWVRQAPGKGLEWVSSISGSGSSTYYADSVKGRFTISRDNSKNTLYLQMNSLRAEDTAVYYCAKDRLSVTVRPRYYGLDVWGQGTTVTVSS VL: DIVMTQSPLSLPVTPGEPASISCTASQSLLYSIGYNYVDWYLQKSGQSPQLLIYLGSKRASGVPDRFSGSGSGTDFTLKISRVEAEDVGFYYCMQAYNSPYTFGQGTKLEIK"
  QUANTITY KIND: "KD Relative to Dupilumab"
  ENDPOINT VALUE: 0.09

Request: // query KD Relative to Dupilumab value for entry Construct 45 (mAb494) (antibody, IgG4, V domains shown, VH/VL only) VH: EVQLVESGGGLEQPGGSLRLSCAGSGFTFRDFAMTWVRQAPGKGLEWVSSISGSGDGTYYADSVKGRFTISRDNSKNTLYLQMNSLRAEDTAVYYCAKDRVSITIRPRYYGLDVWGQGTTVTVSS VL: DIVMTQSPLSLPVTPGEPASISCTASQSLLYSIGYNYVDWYLQKSGQSPQLLIYLGNNRATGVPDRFSGSGSGTDFTLKISRVEAEDVGFYYCMQSLQTPYTFGQGTKLEIK
Response: 0.31

These entries and their values trace back to patent US20260193366A1.
